biological target: human TLR7 (Homo sapiens, UniProt Q9NYK1); assay: HEK293 NFKB reporter assay, human TLR7; details: HEK293 NFKB reporter cells expressing human TLR7; read-out: HEK293 hTLR7 EC50
Parameter: EC50. Scope: all listed entries.
Just the number please, in µM, no unit attached.

Solved entries (count: 5):
CCCN(OCC)C(=O)C1=Cc2sc(CN3CCC(C(=O)OC)CC3)cc2N=C(N)C1 : 4.89
CCCN(CCCNC(=O)OC1CCC1)C(=O)C1=Cc2sc(C#CC3CNC3)cc2N=C(N)C1 : 0.824
CCCN(CCc1ccc(OC)cc1)C(=O)C1=Cc2sccc2N=C(N)C1 : 3.52
CCCN(CCCNC(=O)OC1CCC1)C(=O)C1=Cc2sc(CC3CCNCC3)cc2N=C(N)C1 : 3.7
CCCN(CCC)C(=O)C1=Cc2sc(COCCNC(=O)OC(C)(C)C)cc2N=C(N)C1 : 4

In: Reported EC50 for CCCN(Cc1ccc(CN(C)C)cc1C(F)(F)F)C(=O)C1=Cc2sc(CCCCCNC(=O)OC(C)(C)C)cc2N=C(N)C1 : what is it?
Out: 1.88

In: Record: CCCN(CCCNC(=O)OC1CCC1)C(=O)C1=Cc2sc(CC3CN(C(=O)OC(C)(C)C)C3)cc2N=C(N)C1
Out: 0.101

In: Record: CCCN(OCC)C(=O)C1=Cc2sc(CN3CC(CNC(=O)OC(C)(C)C)C3)cc2N=C(N)C1
Out: 1.55

In: Record: CCCN(OCC)C(=O)C1=Cc2sc(CCC3CN(C(=O)OC(C)(C)C)C3)cc2N=C(N)C1
Out: 0.467

In: Record: [2H]C1=C(C(=O)N(CCC)Cc2ccc(CNC(=O)OC(C)(C)C)nc2)CC(N)=Nc2ccsc21
Out: 7.12

In: Record: CCCN(OCC)C(=O)C1=Cc2sc(CN3CC[C@@H]4[C@H](C3)CN4C(=O)OC(C)(C)C)cc2N=C(N)C1
Out: 3.76

In: Record: CCCN(OCC)C(=O)C1=Cc2sc(CN3Cc4ccc(NC(=O)CCNC(=O)OC(C)(C)C)cc4C3)cc2N=C(N)C1
Out: 3.68

In: Record: CCCN(Cc1cnc(CN)c(C(F)(F)F)c1)C(=O)C1=Cc2sccc2N=C(N)C1
Out: 3.17

In: Record: CCCN(OCC)C(=O)C1=Cc2sc(CN3CC4CCC(C3)N4C(=O)OC(C)(C)C)cc2N=C(N)C1
Out: 2.81

---

Target: human TLR7 (Homo sapiens)
Sequence (Q9NYK1 27-1049): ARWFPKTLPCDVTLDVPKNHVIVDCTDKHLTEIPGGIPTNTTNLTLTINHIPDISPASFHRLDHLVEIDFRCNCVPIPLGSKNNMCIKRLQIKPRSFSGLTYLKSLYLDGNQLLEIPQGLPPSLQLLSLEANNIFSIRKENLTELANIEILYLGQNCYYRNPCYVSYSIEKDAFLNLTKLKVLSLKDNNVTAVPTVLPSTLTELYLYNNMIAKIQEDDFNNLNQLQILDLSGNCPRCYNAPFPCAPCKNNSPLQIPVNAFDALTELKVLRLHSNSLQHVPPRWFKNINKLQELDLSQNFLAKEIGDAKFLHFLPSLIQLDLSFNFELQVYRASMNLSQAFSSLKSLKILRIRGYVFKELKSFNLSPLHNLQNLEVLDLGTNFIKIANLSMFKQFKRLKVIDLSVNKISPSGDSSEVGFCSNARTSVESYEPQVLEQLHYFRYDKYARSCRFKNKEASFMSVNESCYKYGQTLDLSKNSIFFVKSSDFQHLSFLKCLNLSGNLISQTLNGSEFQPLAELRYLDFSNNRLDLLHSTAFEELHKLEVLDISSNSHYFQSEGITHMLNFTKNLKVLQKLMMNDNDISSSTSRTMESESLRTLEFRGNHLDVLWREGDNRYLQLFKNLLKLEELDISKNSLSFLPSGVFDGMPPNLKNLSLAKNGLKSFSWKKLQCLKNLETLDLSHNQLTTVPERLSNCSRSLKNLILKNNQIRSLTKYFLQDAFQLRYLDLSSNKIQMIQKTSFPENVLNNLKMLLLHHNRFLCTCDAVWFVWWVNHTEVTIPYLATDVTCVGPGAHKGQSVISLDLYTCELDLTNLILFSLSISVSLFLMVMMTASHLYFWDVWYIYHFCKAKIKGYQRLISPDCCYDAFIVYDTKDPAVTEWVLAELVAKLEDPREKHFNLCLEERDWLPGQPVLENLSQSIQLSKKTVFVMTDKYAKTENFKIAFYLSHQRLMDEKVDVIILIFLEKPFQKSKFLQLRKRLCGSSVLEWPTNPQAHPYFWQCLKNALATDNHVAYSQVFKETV
Assay: HEK293 NFKB reporter assay, human TLR7
Details: HEK293 NFKB reporter cells expressing human TLR7; read-out: HEK293 hTLR7 EC50
pEC50: −log10 of the molar value.
measured endpoint: pEC50

Solved entries (count: 6):
CCCN(CCC)C(=O)C1=Cc2sc(C#CCCCN)cc2N=C(N)C1 : < 5.05
CCCN(CCC)C(=O)C1=Cc2sc(COCCCN)cc2N=C(N)C1 : < 5.05
CCCN(OCC)C(=O)C1=Cc2sc(-c3cn[nH]c3)cc2N=C(N)C1 : 5.21
CCCN(OCC)C(=O)C1=Cc2sc(CC3CN(C(C)=O)C3)cc2N=C(N)C1 : 5.35
CCCN(CCCNC(=O)OC1CCC1)C(=O)C1=Cc2sc(CN)cc2N=C(N)C1 : 5.28
CCCN(Cc1ccc(CCN)cc1)C(=O)C1=Cc2sccc2N=C(N)C1 : < 5.05

In: Reported pEC50 for CCCN(CCC)C(=O)C1=Cc2sc(C#CCCCNC(=O)OC(C)(C)C)cc2N=C(N)C1 : what is it?
Out: < 5.05

In: Record: CCCN(CCC)C(=O)C1=Cc2sc(CN3CCN(C(=O)OC(C)(C)C)CC3)cc2N=C(N)C1
Out: < 5.05

In: Record: CCCN(Cc1ccc(CN2CCNCC2)cc1)C(=O)C1=Cc2sccc2N=C(N)C1
Out: < 5.05

In: Record: CCCNN(CC)C(=O)C1=Cc2sccc2N=C(N)C1
Out: < 5.05
